# target: CDK7 complex (CDK7, Cyclin H, MAT1) (Homo sapiens)
# Construct: purchased Proqinase GmbH, Germany
# Sequence (P50613 whole entry): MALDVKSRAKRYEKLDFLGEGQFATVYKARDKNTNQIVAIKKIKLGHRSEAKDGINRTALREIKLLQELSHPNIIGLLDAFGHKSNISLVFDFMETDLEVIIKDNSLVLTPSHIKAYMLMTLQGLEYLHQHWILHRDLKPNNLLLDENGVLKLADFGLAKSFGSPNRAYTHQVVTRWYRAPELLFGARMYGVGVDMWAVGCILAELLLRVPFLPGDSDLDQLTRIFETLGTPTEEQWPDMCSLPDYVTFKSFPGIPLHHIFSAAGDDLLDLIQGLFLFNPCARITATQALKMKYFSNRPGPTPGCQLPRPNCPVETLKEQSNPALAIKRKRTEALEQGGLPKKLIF
# Sequence (P51946 whole entry partner): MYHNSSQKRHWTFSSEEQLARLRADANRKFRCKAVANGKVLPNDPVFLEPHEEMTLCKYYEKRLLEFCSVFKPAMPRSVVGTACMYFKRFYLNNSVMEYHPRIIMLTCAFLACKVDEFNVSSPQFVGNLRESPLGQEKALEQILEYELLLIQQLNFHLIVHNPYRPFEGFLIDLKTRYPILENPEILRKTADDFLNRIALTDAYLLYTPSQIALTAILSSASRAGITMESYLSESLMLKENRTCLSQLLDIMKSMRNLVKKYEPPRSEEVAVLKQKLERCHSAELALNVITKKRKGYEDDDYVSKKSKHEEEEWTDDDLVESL
# Sequence (P51948 whole entry partner): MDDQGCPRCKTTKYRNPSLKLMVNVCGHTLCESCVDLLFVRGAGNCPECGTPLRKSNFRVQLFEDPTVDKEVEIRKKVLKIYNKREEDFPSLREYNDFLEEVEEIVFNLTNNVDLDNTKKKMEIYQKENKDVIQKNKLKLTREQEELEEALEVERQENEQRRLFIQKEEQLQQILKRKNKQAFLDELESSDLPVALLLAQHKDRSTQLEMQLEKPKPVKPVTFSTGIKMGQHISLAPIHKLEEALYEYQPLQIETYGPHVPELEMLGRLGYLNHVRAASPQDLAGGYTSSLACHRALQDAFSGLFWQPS
# method: CDK7/CycH/MAT1 trimeric complex kinase assay (PKLight luciferase)
# Type: biochemical
# conditionDetails: 100 nM; mean of three (standard deviation); read-out: CDK7 % remaining kinase activity after incubation with 100 nM of compound
Here the recorded remaining activity at 0.1 µM is given for each entry.
Write the number in % without appending the unit.

CC(C)c1cnn2c(NCc3ccccc3)cc(NCCCCCCc3cccnc3)nc12 :: 78
CC(C)c1cnn2c(NCc3ccccc3)cc(NCCCCCCc3ccc(N)nc3)nc12 :: 81

Problem: Give the reported remaining activity at 0.1 µM for C=C[C@H](CO)Nc1cc(NCc2ccccc2)n2ncc(C(C)C)c2n1 (system: CDK7 complex (CDK7, Cyclin H, MAT1) (Homo sapiens)).
Solution: 80
